experiment: Partition coefficient (logP); format: physicochemical; settings: octanol/water
assayEndpoint: logP

Answered cases to consult:
# compound, result
rows = [
    ("O=C(O)CCc1ccc(-c2nc3cc4ccccc4cc3nc2-c2ccc(CCC(=O)O)s2)s1", 4.28),
    ("Cn1c(=O)c2[nH]c(-c3ccccc3)nc2n(C)c1=O [8-PHENYL THEOPHYLLINE]", 2.05),
    ("CCCC(=O)c1ccccc1 [BUTYROPHENONE]", 2.73),
]

Next item in the queue.
Input: Using the record for c1ccc2[nH]cnc2c1 [BENZIMIDAZOLE] , report its logP.
Output: 1.55

----------
biological target: Platelet-derived growth factor receptor beta (Homo sapiens) (UniProt P09619); assay: In vitro percent inhibition of Platelet-derived growth factor receptor, beta polypeptide at 10 uM concentration of compound dissolved in 100% DMSO using 5''-[gamma-33P]-triphosphate
Sequence (P09619 whole entry): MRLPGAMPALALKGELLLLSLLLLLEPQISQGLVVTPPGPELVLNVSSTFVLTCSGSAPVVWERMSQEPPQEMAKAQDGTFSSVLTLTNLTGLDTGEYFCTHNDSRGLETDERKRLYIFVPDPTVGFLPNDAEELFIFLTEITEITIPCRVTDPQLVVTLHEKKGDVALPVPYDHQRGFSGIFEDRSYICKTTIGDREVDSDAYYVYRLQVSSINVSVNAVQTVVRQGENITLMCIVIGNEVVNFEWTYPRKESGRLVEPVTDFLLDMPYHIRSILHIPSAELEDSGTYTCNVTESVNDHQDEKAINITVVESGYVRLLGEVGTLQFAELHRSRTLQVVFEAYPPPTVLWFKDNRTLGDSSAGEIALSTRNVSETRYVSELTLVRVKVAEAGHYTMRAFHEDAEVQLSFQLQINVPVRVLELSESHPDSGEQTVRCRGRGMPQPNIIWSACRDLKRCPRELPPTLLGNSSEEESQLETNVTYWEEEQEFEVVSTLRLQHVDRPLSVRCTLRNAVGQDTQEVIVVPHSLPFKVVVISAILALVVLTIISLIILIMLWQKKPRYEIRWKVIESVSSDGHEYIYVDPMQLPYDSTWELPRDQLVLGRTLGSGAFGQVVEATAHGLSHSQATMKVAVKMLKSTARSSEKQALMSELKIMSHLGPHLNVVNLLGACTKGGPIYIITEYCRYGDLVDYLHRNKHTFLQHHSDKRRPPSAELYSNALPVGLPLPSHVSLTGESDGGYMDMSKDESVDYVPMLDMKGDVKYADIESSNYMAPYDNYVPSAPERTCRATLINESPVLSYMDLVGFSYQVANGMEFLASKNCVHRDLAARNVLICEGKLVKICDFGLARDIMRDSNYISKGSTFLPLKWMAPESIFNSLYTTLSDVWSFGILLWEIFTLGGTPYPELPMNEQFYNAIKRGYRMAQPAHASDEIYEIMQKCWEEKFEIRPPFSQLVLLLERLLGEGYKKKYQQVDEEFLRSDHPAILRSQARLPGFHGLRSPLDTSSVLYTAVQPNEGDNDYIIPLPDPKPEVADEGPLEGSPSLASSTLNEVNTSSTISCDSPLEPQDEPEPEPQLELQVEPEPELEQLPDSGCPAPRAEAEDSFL
Would you mind telling me the reported inhibition of each entry?
One number for each entry, in %.

# molecule, tgt, inhibition [%]
records = [
    ("O=C(O)c1ccc(-c2nc3cc4ccccc4cc3nc2-c2ccc(C(=O)O)s2)s1", "Platelet-derived growth factor receptor beta (Homo sapiens) (UniProt P09619)", 23),
    ("c1csc(-c2nc3cc4ccccc4cc3nc2-c2cccs2)c1", "Platelet-derived growth factor receptor beta (Homo sapiens) (UniProt P09619)", 15),
    ("c1csc(-c2nc3cc4c(cc3nc2-c2cccs2)OCCO4)c1", "Platelet-derived growth factor receptor beta (Homo sapiens) (UniProt P09619)", 61),
    ("c1csc(-c2nc3cc4c(cc3nc2-c2cccs2)OCCCO4)c1", "Platelet-derived growth factor receptor beta (Homo sapiens) (UniProt P09619)", 24),
    ("O=C(O)C1COc2cc3nc(-c4cccs4)c(-c4cccs4)nc3cc2O1 (stereo unspecified)", "Platelet-derived growth factor receptor beta (Homo sapiens) (UniProt P09619)", 5),
]

Now look at this entry.
Input: Quick check: inhibition of `COC(=O)CCc1ccc(-c2nc3cc4ccccc4cc3nc2-c2ccc(CCC(=O)OC)s2)s1` ?
Output: 13

----------
biological target: Tyrosine-protein kinase transforming protein Abl (Abelson murine leukemia virus) (UniProt P00521); experiment: In vitro percent inhibition of v-Abl tyrosine kinase at 10 uM concentration of compound dissolved in 100% DMSO using 5''-[gamma-33P]-triphosphate
Sequence (P00521 whole entry): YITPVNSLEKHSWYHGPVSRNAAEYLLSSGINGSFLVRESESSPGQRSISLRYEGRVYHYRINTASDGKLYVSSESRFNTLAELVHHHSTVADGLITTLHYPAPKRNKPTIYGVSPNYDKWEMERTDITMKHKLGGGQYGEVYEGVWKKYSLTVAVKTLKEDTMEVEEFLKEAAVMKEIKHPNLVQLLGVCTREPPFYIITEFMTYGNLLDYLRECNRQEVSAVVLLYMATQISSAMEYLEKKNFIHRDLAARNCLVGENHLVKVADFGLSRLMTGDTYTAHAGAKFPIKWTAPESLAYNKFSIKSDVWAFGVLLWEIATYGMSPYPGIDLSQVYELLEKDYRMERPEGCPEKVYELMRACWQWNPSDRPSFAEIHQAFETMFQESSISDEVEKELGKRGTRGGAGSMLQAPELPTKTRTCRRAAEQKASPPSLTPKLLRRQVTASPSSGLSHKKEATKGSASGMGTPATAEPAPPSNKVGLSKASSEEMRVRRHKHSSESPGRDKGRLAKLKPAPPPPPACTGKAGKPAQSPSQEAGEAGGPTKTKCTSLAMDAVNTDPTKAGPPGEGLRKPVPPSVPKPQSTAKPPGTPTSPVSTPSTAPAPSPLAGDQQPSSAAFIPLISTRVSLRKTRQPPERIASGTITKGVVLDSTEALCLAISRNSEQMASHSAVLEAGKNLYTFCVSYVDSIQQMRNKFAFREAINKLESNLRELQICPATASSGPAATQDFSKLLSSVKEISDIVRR
assayEndpoint: inhibition (%)
Numbers only, in %.

Study these solved cases before continuing.
# compound, inhibition / %
records = [
    ("COc1cc2nc(-c3cccs3)c(-c3cccs3)nc2cc1OC", -2),
    ("O=C(O)c1ccc2cc3nc(-c4cccs4)c(-c4cccs4)nc3cc2c1", 11),
    ("COc1cc2nc3nc(-c4cccs4)c(-c4cccs4)nc3nc2cc1OC", -1),
    ("c1csc(-c2nc3cc4c(cc3nc2-c2cccs2)OCCCO4)c1", 10),
    ("c1csc(-c2nc3cc4c(cc3nc2-c2cccs2)OCO4)c1", 14),
]

Input: Returns the measured inhibition for the input compound. Input: O=C(O)C1COc2cc3nc(-c4cccs4)c(-c4cccs4)nc3cc2O1 (stereo unspecified)
Output: -6

----------
target: RAF proto-oncogene serine/threonine-protein kinase (Homo sapiens); experiment: In vitro percent inhibition of RAF proto-oncogene serine/threonine-protein kinase at 10 uM concentration of compound dissolved in 100% DMSO using 5''-[gamma-33P]-triphosphate
Outcome: true for inhibition of at least 10%; false for anything lower.

# count of solved cases: 6
# compound, discreteLabel
data = [
    ("COC(=O)CCCc1ccc(-c2nc3cc4ccccc4cc3nc2-c2ccc(CCCC(=O)OC)s2)s1", "true"),
    ("O=C(O)C1COc2cc3nc(-c4cccs4)c(-c4cccs4)nc3cc2O1 (configuration not stated)", "true"),
    ("c1csc(-c2nc3cc4c(cc3nc2-c2cccs2)OCCCO4)c1", "false"),
    ("COc1cc2nc3nc(-c4cccs4)c(-c4cccs4)nc3nc2cc1OC", "false"),
    ("COC(=O)CCc1ccc(-c2nc3cc4ccccc4cc3nc2-c2ccc(CCC(=O)OC)s2)s1", "true"),
    ("O=C(O)Cc1csc(-c2nc3cc4ccccc4cc3nc2-c2cc(CC(=O)O)cs2)c1", "true"),
]

Input: Determine whether measured inhibition meets or exceeds 10% for `O=C(O)c1ccc(-c2nc3cc4ccccc4cc3nc2-c2ccc(C(=O)O)s2)s1`
Output: true
